# Tested on: Plasma
# assay: Plasma trough concentration in human at 40 mg/day
# measurement.conditions: read-out: Cmin

- compound: "NC(=O)c1cccc2cn(-c3ccc([C@@H]4CCCNC4)cc3)nc12 [NIRAPARIB]"
  concentration: "288 nM"

###

# assay: Volume of distribution at steady state in rat
# measurement.conditions: in vivo

- molecule: "NC(=O)c1cccc2cn(-c3ccc([C@@H]4CCCNC4)cc3)nc12"
  Vd (L/kg): 6.9

###

# assay: in vitro
# measurement.conditions: human, BT20 cells
# Description: Cytotoxicity against human BT20 cells assessed as inhibition of cell proliferation after 5 to 7 days by CellTiter-Blue assay
readout.name: CC50 (nM)

- molecule: "NC(=O)c1cccc2cn(-c3ccc([C@@H]4CCCNC4)cc3)nc12"
  value: 2200

The reported measurements were obtained from ChEMBL document CHEMBL3425485.
